src = patent US8551999B2

measurement_name: melting point

Previously resolved entries follow.
smiles_code: Br.Cc1ccc(S(=O)(=O)N(C)c2ccc(Oc3ccc4cc(C(=O)N5CCN(Cc6ccc(OC(F)F)cc6)CC5)n(C)c4c3)nc2)cc1
melting point: 214.5 to 218.5 °C (dec.)
--
smiles_code: CC(C)Oc1ccc(CN2CCN(C(=O)c3cc4cc(Oc5ccc(N(C)C(=O)c6ccc(C(F)(F)F)cc6)cn5)ccc4n3C)CC2)cn1.O=C(O)/C=C\C(=O)O
melting point: 157 to 159 °C

Consider the record given below.
Reported melting point of `CCCOc1ccc(CN2CCN(C(=O)c3cc4cc(Oc5ccc(N(C)C(=O)c6ccc(Cl)c(Cl)c6)cn5)ccc4n3C)CC2)cc1.O=C(O)/C=C\C(=O)O` : 163 to 164 °C

----------
measurement_name: melting point

Previously resolved entries follow.
smiles_code: Br.CCCOc1ccc(CN2CCN(C(=O)c3cc4ccc(Oc5ccc(N(C)C(=O)c6ccc(C(F)(F)F)cc6Cl)cn5)cc4n3C)CC2)cc1
melting point: 238.6 to 240.1 °C
//
smiles_code: CCOc1ccc(CN2CCN(C(=O)c3cc4cc(Oc5ncc(NC(=O)c6ccc(Cl)c(Cl)c6)cn5)ccc4n3C)CC2)cc1
melting point: 156 to 157 °C
//
smiles_code: CCc1ccc(CN2CCN(C(=O)c3cc4cc(Oc5ccc(N(C)C(=O)c6ccc(C(F)(F)F)cc6)cn5)ccc4n3C)CC2)cc1.O=C(O)C(=O)O
melting point: 167 to 169 °C
//
smiles_code: Cc1ccc(S(=O)(=O)N(C)c2ccc(Oc3ccc4cc(C(=O)N5CCN(Cc6ccc7c(c6)OC(F)(F)O7)CC5)n(C)c4c3)nc2)cc1.Cl
melting point: 240 to 243 °C
//
smiles_code: Br.CN(C(=O)c1ccc(Cl)c(Cl)c1)c1ccc(Oc2ccc3cc(C(=O)N4CCN(Cc5ccc(OCC(F)(F)F)cc5)CC4)n(C)c3c2)nc1
melting point: 197.1 to 201.5 °C

Consider the record given below.
Reported melting point of `Br.COc1ccc(CN2CCN(C(=O)c3cc4cc(Oc5ccc(NC(=O)c6ccc(C(F)(F)F)c(C)c6)cn5)ccc4n3C)CC2)cc1` : 188 to 191 °C

----------
# melting point per entry

Previously resolved entries follow.
compound: CN(C(=O)c1ccc(C(F)(F)F)cc1)c1ccc(Oc2ccc3c(c2)cc(C(=O)N2CCN(C(=O)c4ccc(C#N)cc4)CC2)n3C)nc1
melting point: 135 to 137 °C

compound: Br.Cn1c(C(=O)N2CCN(Cc3ccc(OC(CF)CF)cc3)CC2)cc2ccc(Oc3ccc(NC(=O)c4ccc(Cl)c(Cl)c4)cn3)cc21
melting point: 242.8 to 243.9 °C

compound: CN(c1ccc(Oc2ccc3cc(C(=O)N4CCN(Cc5ccc(OCCF)cc5)CC4)n(C)c3c2)nc1)S(=O)(=O)c1ccc(Cl)c(Cl)c1
melting point: 195.2 to 196.8 °C

compound: Br.Br.Cn1c(C(=O)N2CCN(Cc3ccncc3)CC2)cc2cc(Oc3ccc(NC(=O)c4ccc(Cl)c(Cl)c4)cn3)ccc21
melting point: 214 to 219 °C (dec.)

compound: Br.CCOc1ccc(CN2CCN(C(=O)c3cc4cc(Oc5ccc(NC(=O)c6ccc(C(F)(F)F)cc6)cn5)ccc4n3C)CC2)cc1
melting point: 231 to 234 °C

compound: Br.CCOc1cccc(CN2CCN(C(=O)c3cc4ccc(Oc5ccc(N(C)C(=O)c6ccc(C(F)(F)F)cc6)cn5)cc4n3C)CC2)c1
melting point: 234 to 236 °C

Reported melting point of `CC(C)N(c1ccc(Oc2ccc3cc(C(=O)N4CCN(Cc5ccc(OCC(F)(F)F)cc5)CC4)n(C)c3c2)nc1)S(=O)(=O)c1ccc(Cl)c(Cl)c1.Cl` : 232.8 to 235.6 °C

Reported melting point of `Br.CN(C(=O)c1ccc(Cl)c(Cl)c1)c1ccc(Oc2ccc3c(c2)cc(C(=O)N2CCN(Cc4ccccc4)CC2)n3C)nc1` : 210 to 213 °C

Reported melting point of `Br.CC(C)Oc1ccc(CN2CCN(C(=O)c3cc4ccc(Oc5ccc(NC(=O)c6ccc(Cl)c(Cl)c6)cn5)cc4n3C)CC2)cn1` : 236.9 to 240.4 °C
